Below, each entry is listed with its recorded IC50.
Assayed target: KRAS G13D (Homo sapiens (Human), UniProt P01116+P62937, G13D)
Sequence (P01116-2 other isoform, or with tags, fused parts or gaps G13D, one chain of several): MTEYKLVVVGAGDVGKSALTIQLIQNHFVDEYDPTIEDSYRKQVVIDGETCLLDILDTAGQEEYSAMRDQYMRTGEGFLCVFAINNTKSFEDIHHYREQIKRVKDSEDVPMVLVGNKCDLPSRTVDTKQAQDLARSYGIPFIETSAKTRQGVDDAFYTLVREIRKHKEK
Assay protocol: Ras-Raf (BRAF RBD) disruption / FRET / MOA assay, KRAS G13D
Assay type: biochemical
Experimental setup: read-out: IC50* KRAS G13D FRET data
Measurement label: IC50

# Compound, Assayed target, Assay result
rows = [
    ("C=CC(=O)N1CC[C@H](C(=O)N2CCCCC[C@H]2C(=O)N[C@H]2Cc3nc(cs3)-c3ccc4c(c3)c(c(-c3cccnc3[C@H](C)OC)n4CC)CC(C)(C)COC(=O)[C@@H]3CCCN(N3)C2=O)C1 (atropisomer, axis not shown)", "KRAS G13D (Homo sapiens (Human), UniProt P01116+P62937, G13D)", "> 10 µM"),
    ("CC#CC(=O)N1CC[C@H](C(=O)N(C)[C@H](C(=O)N[C@H]2Cc3cccc(c3)-c3ccc4c(c3)c(c(-c3cccnc3[C@H](C)OC)n4CC)CC(C)(C)COC(=O)[C@@H]3CCCN(N3)C2=O)C(C)C)C1 (atropisomer, axis not shown)", "KRAS G13D (Homo sapiens (Human), UniProt P01116+P62937, G13D)", "> 10 µM"),
    ("C=CC(=O)N1CC2(C1)OCN([C@H](C(=O)N[C@H]1Cc3cccc(c3)-c3ccc4c(c3)c(c(-c3cccnc3[C@H](C)OC)n4CC)CC(C)(C)COC(=O)[C@@H]3CCCN(N3)C1=O)C(C)C)C2=O (atropisomer, axis not shown)", "KRAS G13D (Homo sapiens (Human), UniProt P01116+P62937, G13D)", "1 to 10 µM"),
    ("C=CC(=O)N1CC[C@H](C(=O)N(C)[C@H](C(=O)N[C@H]2Cc3cc(O)cc(c3)-c3ccc4c(c3)c(c(-c3cccc(=O)n3C(C)C)n4CC)CC(C)(C)COC(=O)[C@@H]3CCCN(N3)C2=O)C(C)C)C1", "KRAS G13D (Homo sapiens (Human), UniProt P01116+P62937, G13D)", "> 10 µM"),
]

----------
Let's look at some compounds and their measured pIC50.
Assayed target: KRAS G12S (Homo sapiens (Human), UniProt P01116+P62937, G12S)
Sequence (P01116-2 other isoform, or with tags, fused parts or gaps G12S): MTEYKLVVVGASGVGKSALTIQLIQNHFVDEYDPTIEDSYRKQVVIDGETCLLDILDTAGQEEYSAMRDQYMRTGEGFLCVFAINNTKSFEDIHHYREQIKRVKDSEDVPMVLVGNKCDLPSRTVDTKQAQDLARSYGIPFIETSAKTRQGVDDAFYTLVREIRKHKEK
Sequence (P62937 whole entry): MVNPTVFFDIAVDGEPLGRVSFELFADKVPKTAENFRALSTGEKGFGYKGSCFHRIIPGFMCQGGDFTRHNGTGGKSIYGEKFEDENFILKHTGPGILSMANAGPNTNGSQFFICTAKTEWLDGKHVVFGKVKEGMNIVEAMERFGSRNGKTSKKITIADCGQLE
Assay protocol: Ras-Raf (BRAF RBD) disruption / FRET / MOA assay, KRAS G12S
Type: biochemical
Experimental setup: Ras-Raf disruption/FRET/MOA assay; class symbols; read-out: KRAS G12S FRET data IC50
pIC50: −log10 of the molar value.
Measurement label: pIC50

# Compound, Assay result
data = [
    ("CCn1c(-c2ccccc2CN(C)C)c2c3cc(ccc31)-c1cc(O)cc(c1)C[C@H](NC(=O)[C@H](C(C)C)N(C)C(=O)c1ncc(NC(=O)/C=C/CN(C)C)s1)C(=O)N1CCC[C@H](N1)C(=O)OCC(C)(C)C2 (atropisomer, axis not shown) [Example A163]", "< 5.00"),
    ("CCn1c(-c2cnccc2COC)c2c3cc(ccc31)-c1cc(O)cc(c1)C[C@H](NC(=O)[C@H](C(C)C)N(C)C(=O)[C@H]1CCN(C(=O)C#CCN(C)C)C1)C(=O)N1CCC[C@H](N1)C(=O)OCC(C)(C)C2 (atropisomer, axis not shown) [Example A107]", "6.00 to 7.00"),
    ("C=CC(=O)N1CC2(CCN(C(=O)N(C)[C@H](C(=O)N[C@H]3Cc4cccc(c4)-c4ccc5c(c4)c(c(-c4cccnc4[C@H](C)OC)n5CC)CC(C)(C)COC(=O)[C@@H]4CCCN(N4)C3=O)C(C)C)CC2)C1 (atropisomer, axis not shown) [Example A680]", "6.00 to 7.00"),
    ("C=CC(=O)N1CC(OCC(C(=O)N[C@H]2Cc3cccc(c3)-c3ccc4c(c3)c(c(-c3cccnc3[C@H](C)OC)n4CC)CC(C)(C)COC(=O)[C@@H]3CCCN(N3)C2=O)C(C)C)C1 (mixture of isomers) [Example A484]", "< 5.00"),
    ("CO[C@@H](C)c1ncccc1-c1c2c3cc(ccc3n1CC(F)(F)F)-c1nc(ns1)C[C@H](NC(=O)[C@@H](COC1CN(C(=O)C#CC(C)(C)N(C)C)C1)C(C)C)C(=O)N1CCC[C@H](N1)C(=O)OCC(C)(C)C2 (atropisomer, axis not shown) [Example A590]", "5.00 to 6.00"),
    ("C=CC(=O)N1CC[C@H](C(=O)N(C)[C@H](C(=O)N[C@H]2Cc3cc(O)cc(c3)-c3ccc4c(c3)c(c(-c3ccccc3N3CCOCC3)n4CC)CC(C)(C)COC(=O)[C@@H]3CCCN(N3)C2=O)C(C)C)C1 [Example A026]", "< 5.00"),
    ("C=CC(=O)N1CC(C(=O)N(C)[C@H](C(=O)N[C@H]2Cc3cc(O)cc(c3)-c3ccc4c(c3)c(c(-c3cccnc3COC)n4CC)CC(C)(C)COC(=O)[C@@H]3CCCN(N3)C2=O)C(C)C)C1 (single isomer, unassigned) [Example A070]", "6.00 to 7.00"),
]
